Each recorded value in this set is attributed to PubChem BioAssay (NCI).

Collected TGI values appear next to each entry.
Test system: CAKI-1 renal
Experiment: NCI tumour cell line growth inhibition, 48 h

// lookup TGI for O=C(O)CN(CC(=O)O)C1CCCCC1N1CC(=O)OC(=O)C1 (stereo not given)
> 100 µM

Also need Cn1c(=O)nc2n(-c3ccc(O)cc3)c3ccccc3nc-2c1=O , thanks.
> 100 µM

Also need C/C(=N/O)c1cccc(Nc2cc(-n3nnc4ccccc43)nc3ccccc23)c1 , thanks.
43.5 µM

Also need c1ccc(NN(Cc2cnccn2)c2ccccc2)cc1 , thanks.
> 100 µM

Also need O=C(/C=C/c1ccccc1)Oc1cccc2cccnc12 , thanks.
83.2 µM

---

Collected GI50 values appear next to each entry.
System: SR leukemia
Assay: NCI tumour cell line growth inhibition, 48 h

Check out these entries, answers already filled in.
CC1CC(C)CC(C)C(O)/C(C#N)=C/C=C/CC(C2CCCC2C(=O)O)OC(=O)CC(O)C(C)C1 (stereo not given): 0.0176 µM
COc1ccc(-c2noc(C(=O)O)c2-c2cc(OC)c(OC)c(OC)c2)cc1: 0.402 µM
CO/N=C(\COc1ccc2c(c1)[nH]c1ccccc12)c1ccc(OC)cc1: 71.6 µM
CC(=O)c1c(C(F)(F)F)n([O-])c2ccccc2[n+]1=O: 0.167 µM
CCSC1=NC2C(N(CC)C(=O)N2CC)N1/N=C/C=C/c1ccccc1[N+](=O)[O-] (stereo not given): 0.0895 µM
COc1cc(C)ccc1C(=O)c1ccc(C)cc1OC: 0.567 µM
CC1=C([Se]CC(OC(=O)CC[Se]c2ccccc2)C(=O)NC(C)(C)C)C(=O)c2ccccc2C1=O (stereo not given): 0.938 µM
O=C(c1ccc2ccccc2c1)c1c(C(F)(F)F)n([O-])c2ccc(C(F)(F)F)cc2[n+]1=O: 0.174 µM

// lookup GI50 for Nc1nc2ccc(-c3nc4ccc5[nH]ncc5c4c4c3CCC4)cc2s1
0.155 µM

Also need N#CC(C#N)=C/C=C(\Cl)c1ccc(Cl)cc1 , thanks.
3.31 µM
